So I've got a bunch of compounds here, and I need their MIC50 values.
Test system: Enterococcus faecalis
Assay: Antimicrobial activity against vancomycin-susceptible Enterococcus faecalis by broth microdilution method
Type: functional
Provide the reading as a plain figure in µg/mL.

So what does the record say about MIC50 for c1cc2cc(-c3ccc(-c4cc5ccc(C6=NCCCN6)cc5[nH]4)cc3)[nH]c2cc1C1=NCCCN1 ?
0.06

So what does the record say about MIC50 for CC(=O)NC[C@H]1CN(c2ccc(N3CCOCC3)c(F)c2)C(=O)O1 ?
2

So what does the record say about MIC50 for CCCCCCCCCC(=O)N[C@@H](Cc1c[nH]c2ccccc12)C(=O)N[C@H](CC(N)=O)C(=O)N[C@@H](CC(=O)O)C(=O)N[C@@H]1C(=O)NCC(=O)N[C@@H](CCCN)C(=O)N[C@@H](CC(=O)O)C(=O)N[C@H](C)C(=O)N[C@@H](CC(=O)O)C(=O)NCC(=O)N[C@H](CO)C(=O)N[C@@H]([C@H](C)CC(=O)O)C(=O)N[C@@H](CC(=O)c2ccccc2N)C(=O)O[C@@H]1C ?
1

So what does the record say about MIC50 for c1cc2cc(-c3ccc(-c4cc5ccc(C6=NCCN6)cc5[nH]4)cc3)[nH]c2cc1C1=NCCN1 ?
0.06

###

System: Acinetobacter baumannii
Assay: Antimicrobial activity against Acinetobacter baumannii by broth microdilution method
Assay type: functional
Assay metric: MIC90

Short answer please: MIC90, Acinetobacter baumannii, entry O=C(O)c1cn(C2CC2)c2cc(N3CCNCC3)c(F)cc2c1=O [CIPROFLOXACIN]
> 2 µg/mL

Short answer please: MIC90, Acinetobacter baumannii, entry c1cc2cc(-c3ccc(-c4cc5ccc(C6=NCCN6)cc5[nH]4)cc3)[nH]c2cc1C1=NCCN1
> 16 µg/mL

Short answer please: MIC90, Acinetobacter baumannii, entry c1cc2cc(-c3ccc(-c4cc5ccc(C6=NCCCN6)cc5[nH]4)cc3)[nH]c2cc1C1=NCCCN1
4 µg/mL

Short answer please: MIC90, Acinetobacter baumannii, entry CN(C)c1cc(NC(=O)CNC(C)(C)C)c(O)c2c1C[C@H]1C[C@H]3[C@H](N(C)C)C(O)=C(C(N)=O)C(=O)[C@@]3(O)C(O)=C1C2=O [TIGECYCLINE]
> 8 µg/mL

Short answer please: MIC90, Acinetobacter baumannii, entry C[C@@H](O)[C@H]1C(=O)N2C(C(=O)O)=C(SCCNC=N)C[C@H]12 [IMIPENEM ANHYDROUS]
> 32 µg/mL

###

System: Acinetobacter baumannii
Test: Antimicrobial activity against Acinetobacter baumannii by broth microdilution method
Format: functional
Assay metric: MIC50
Hey, just the number and the unit after it is fine.

So what does the record say about MIC50 for CN(C)c1cc(NC(=O)CNC(C)(C)C)c(O)c2c1C[C@H]1C[C@H]3[C@H](N(C)C)C(O)=C(C(N)=O)C(=O)[C@@]3(O)C(O)=C1C2=O ?
0.25 µg/mL

So what does the record say about MIC50 for c1cc2cc(-c3ccc(-c4cc5ccc(C6=NCCN6)cc5[nH]4)cc3)[nH]c2cc1C1=NCCN1 ?
8 µg/mL

So what does the record say about MIC50 for O=C(O)c1cn(C2CC2)c2cc(N3CCNCC3)c(F)cc2c1=O ?
0.25 µg/mL

So what does the record say about MIC50 for c1cc2cc(-c3ccc(-c4cc5ccc(C6=NCCCN6)cc5[nH]4)cc3)[nH]c2cc1C1=NCCCN1 ?
0.5 µg/mL
